Biological target: human glucagon receptor (human, UniProt P47871 26-477)
Assay: cell-based or functional assay
*1 amine or outer side, *2 acyl side, *3 side chain or, on linkers, in order; H or OH if unused. Where no end group is shown, it is not given here. Side-chain parts run from the residue outwards. [ ]: non-standard residue; d: D form. The star is where a group is joined. γGlu = O=C(O)[C@H](CCC(=O)[*:2])N[*:1]; C14 diacid = O=C(O)CCCCCCCCCCCCC(=O)*; αMeY = C[C@](N)(Cc1ccc(O)cc1)C(=O)O; αMeF = C[C@](N)(Cc1ccccc1)C(=O)O; αMeL = CC(C)C[C@](C)(N)C(=O)O; Orn = NCCC[C@H](N)C(=O)O; AEEA = NCCOCCOCC(=O)O; Aib = CC(C)(N)C(=O)O
QUANTITY KIND: cAMP EC50

### Prompt I'd like to know its cAMP EC50. The binder in question is YXEGTXTSDXSIXLDXKAQXEFIEXLIEGGKSSGAPPPS (Aib2, αMeF(2F)6, 4Pal10, αMeL13, Orn16, K17(Z), Aib20, αMeY25, K31(Z), C-terminal NH2; Z = AEEA2-(γ-Glu)-CO-(CH2)12-CO2H) [Example 158]
### Response > 9.95 µM

### Prompt I'd like to know its cAMP EC50. The binder in question is Y[Aib]EGT[αMeF]TSDV[Aib]I[αMeL]LD[Orn]K([AEEA-AEEA-γGlu-C14 diacid])AQ[Aib]EFIK([AEEA-AEEA-γGlu-C14 diacid])[αMeY]LIEGGKSSGAPPPS-NH2 (not fully specified) [Example 182]
### Response > 9.95 µM
